Quick list: MIC per entry.
- System: Staphylococcus aureus
- Assay name: Tested in vitro for minimum inhibitory concentration to produce antibacterial activity against Staphylococcus aureus A5177 in presence of erythromycin A
- Format: functional

Answered examples (7):
* CC[C@H]1OC(=O)[C@H](C)C[C@H](C)[C@@H](O[C@@H]2O[C@H](C)C[C@H](N(C)C)[C@H]2O)[C@](C)(OC)C[C@@H](C)/C(=N\O)[C@H](C)[C@@H](O)[C@]1(C)O | 3.1 µg/mL
* CC[C@H]1OC(=O)[C@H](C)C[C@H](C)[C@@H](O[C@@H]2O[C@H](C)C[C@H](N(C)C)[C@H]2O)[C@](C)(OC)C[C@@H](C)C(=O)[C@H](C)[C@H]2OC(=O)O[C@@]21C | 3.1 µg/mL
* CC[C@H]1OC(=O)[C@H](C)C[C@H](C)[C@@H](O[C@@H]2O[C@H](C)C[C@H](N(C)C)[C@H]2O)[C@](C)(OC)C[C@@H](C)C(=O)[C@H](C)[C@H]2N(CCc3ccc(Oc4ccccc4)cc3)C(=O)O[C@]12C | 12.5 µg/mL
* CC[C@H]1OC(=O)[C@H](C)C[C@H](C)[C@@H](O[C@@H]2O[C@H](C)C[C@H](N(C)C)[C@H]2O)[C@](C)(OC)C[C@@H](C)/C(=N\OC)[C@H](C)[C@@H](O)[C@]1(C)O | 6.2 µg/mL
* CC[C@H]1OC(=O)[C@H](C)C[C@H](C)[C@@H](O[C@@H]2O[C@H](C)C[C@H](N(C)C)[C@H]2O)[C@](C)(OC)C[C@@H](C)C(=O)/C(C)=C/[C@]1(C)O | 3.1 µg/mL
* CC[C@H]1OC(=O)[C@H](C)C(=O)[C@H](C)[C@@H](O[C@@H]2O[C@H](C)C[C@H](N(C)C)[C@H]2O)[C@](C)(OC)C[C@@H](C)C(=O)[C@H](C)[C@@H](O)[C@]1(C)O | 1.56 µg/mL
* CC[C@H]1OC(=O)[C@H](C)[C@@H](OC(=S)SC)[C@H](C)[C@@H](O[C@@H]2O[C@H](C)C[C@H](N(C)C)[C@H]2O)[C@](C)(OC)C[C@@H](C)C(=O)[C@H](C)[C@@H](O)[C@]1(C)O | 3.1 µg/mL

Sample CC[C@H]1OC(=O)[C@H](C)C[C@H](C)[C@@H](O[C@@H]2O[C@H](C)C[C@H](N(C)C)[C@H]2O)[C@](C)(OC)C[C@@H](C)C(=O)[C@H](C)[C@@H](O)[C@]1(C)O ; MIC observed: 1.56 µg/mL
